Source listed as BigSolDB 2.1.

# measurement conditions: in 2-butoxyethanol, 278.15 K
metric: solubility (mole fraction)
Format: numeric value only, no unit, no commentary.

Data request, read-out solubility (mole fraction), for "CCS(=O)(=O)CCn1c([N+](=O)[O-])cnc1C"
0.00191

---

# measurement conditions: in 2-methoxyethanol, 278.15 K
metric: solubility (mole fraction)
Could you respond with only the numeric value?

Which solubility (mole fraction) value belongs to "CCS(=O)(=O)CCn1c([N+](=O)[O-])cnc1C" ?
0.00839

---

# measurement conditions: in n-propyl acetate, 308.15 K
metric: solubility (mole fraction)
Answer using only a numeral; do not append any unit.

GET /values?readout=solubility (mole fraction)&item= "CCS(=O)(=O)CCn1c([N+](=O)[O-])cnc1C"
0.00783

---

# measurement conditions: in acetone, 323.15 K
metric: solubility (mole fraction)
Give only the figure.

Look up solubility (mole fraction) for this molecule: "CCS(=O)(=O)CCn1c([N+](=O)[O-])cnc1C"
0.0517

---

# measurement conditions: in 2-butoxyethanol, 308.15 K
metric: solubility (mole fraction)
Number only, no unit.

If you can, please state the reported solubility (mole fraction) value of "CCS(=O)(=O)CCn1c([N+](=O)[O-])cnc1C" .
0.00687

---

# measurement conditions: in n-butyl acetate, 293.15 K
metric: solubility (mole fraction)
A bare number is all that is needed in reply.

Bench note: what solubility (mole fraction) did "CCS(=O)(=O)CCn1c([N+](=O)[O-])cnc1C" show?
0.00358

---

# measurement conditions: in DMAc, 278.15 K
metric: solubility (mole fraction)
Answer with the value's number alone.

// lookup solubility (mole fraction) for "CCS(=O)(=O)CCn1c([N+](=O)[O-])cnc1C"
0.0509

---

# measurement conditions: in DMF, 313.15 K
metric: solubility (mole fraction)
Please reply with the number alone, leaving off any unit.

Which solubility (mole fraction) is reported for this compound? "CCS(=O)(=O)CCn1c([N+](=O)[O-])cnc1C"
0.119

---

# measurement conditions: in DMAc, 303.15 K
metric: solubility (mole fraction)
Please reply with the value in numeric form only.

May I ask what solubility (mole fraction) has been recorded for "CCS(=O)(=O)CCn1c([N+](=O)[O-])cnc1C" ?
0.0944

---

# measurement conditions: in n-propyl acetate, 288.15 K
metric: solubility (mole fraction)
The answer should be written as a number, with no unit following it.

Fill in: solubility (mole fraction) of "CCS(=O)(=O)CCn1c([N+](=O)[O-])cnc1C" is ___
0.00377

---

# measurement conditions: in 2-methoxyethanol, 318.15 K
metric: solubility (mole fraction)

Given the entry "CCS(=O)(=O)CCn1c([N+](=O)[O-])cnc1C" , report its measured solubility (mole fraction).
0.0377

---

# measurement conditions: in 2-ethoxyethanol, 308.15 K
metric: solubility (mole fraction)
API doc: respond with a numeric literal and nothing else, no unit.

Fill in: solubility (mole fraction) of "CCS(=O)(=O)CCn1c([N+](=O)[O-])cnc1C" is ___
0.012

---

# measurement conditions: in ethanol, 293.15 K
metric: solubility (mole fraction)
Lab note: record the figure alone, no unit after it.

Returns the measured solubility (mole fraction) for the input compound. Input: "CCS(=O)(=O)CCn1c([N+](=O)[O-])cnc1C"
0.000665

---

# measurement conditions: in methyl acetate, 303.15 K
metric: solubility (mole fraction)
API note: the answer field is a bare number with no unit suffix.

Given "CCS(=O)(=O)CCn1c([N+](=O)[O-])cnc1C" , state its recorded solubility (mole fraction).
0.0134

---

# measurement conditions: in 2-propoxyethanol, 318.15 K
metric: solubility (mole fraction)
Kindly provide the number alone.

# query: solubility (mole fraction) of entry "CCS(=O)(=O)CCn1c([N+](=O)[O-])cnc1C"
0.0123

---

# measurement conditions: in 2-ethoxyethanol, 298.15 K
metric: solubility (mole fraction)

Look up solubility (mole fraction): "CCS(=O)(=O)CCn1c([N+](=O)[O-])cnc1C"
0.00792

---

# measurement conditions: in acetone, 278.15 K
metric: solubility (mole fraction)
In your answer, state the number alone without any accompanying words.

# query: solubility (mole fraction) of entry "CCS(=O)(=O)CCn1c([N+](=O)[O-])cnc1C"
0.00866

---

# measurement conditions: in 2-propoxyethanol, 278.15 K
metric: solubility (mole fraction)
Format: numeric value only, no unit, no commentary.

Looking for the measured solubility (mole fraction) of "CCS(=O)(=O)CCn1c([N+](=O)[O-])cnc1C" , can you help?
0.0022

---

# measurement conditions: in methyl acetate, 278.15 K
metric: solubility (mole fraction)

Would you kindly share the measured solubility (mole fraction) for "CCS(=O)(=O)CCn1c([N+](=O)[O-])cnc1C" ?
0.00557

---

# measurement conditions: in 2-ethoxyethanol, 293.15 K
metric: solubility (mole fraction)
Hey, just send me the number, nothing else.

solubility (mole fraction) lookup needed for "CCS(=O)(=O)CCn1c([N+](=O)[O-])cnc1C" , thanks.
0.00647

---

# measurement conditions: in 2-butoxyethanol, 303.15 K
metric: solubility (mole fraction)
Could you keep your reply to the number by itself?

# input molecule: "CCS(=O)(=O)CCn1c([N+](=O)[O-])cnc1C" ; wanted: its solubility (mole fraction)
0.0054

---

# measurement conditions: in n-propyl acetate, 303.15 K
metric: solubility (mole fraction)

Dear colleague, I am looking for the recorded solubility (mole fraction) of the following molecule: "CCS(=O)(=O)CCn1c([N+](=O)[O-])cnc1C"
0.00659

---

# measurement conditions: in n-propyl acetate, 318.15 K
metric: solubility (mole fraction)

Consider the compound "CCS(=O)(=O)CCn1c([N+](=O)[O-])cnc1C" and give its measured solubility (mole fraction).
0.0114
